system: Calu-3; assay: cell viability relative to DMSO; higher = less toxic; settings: 72 h; 100 nM

>  <compound>
NC(=O)NCCN1CCN(c2cccc(C(F)(F)F)c2)CC1

>  <cell viability / %>
101

$$$$
>  <compound>
COc1ccccc1N1CCN(CCN(C(=O)C2CCCCC2)c2ccccn2)CC1

>  <cell viability / %>
99

$$$$
>  <compound>
O=C(Nc1ccccc1)N1CCC(Cc2cnc3ccccc3c2)CC1

>  <cell viability / %>
114

$$$$
>  <compound>
CN(C)[C@@H]1C(O)=C(C(N)=O)C(=O)[C@@]2(O)C(O)=C3C(=O)c4c(O)ccc(Cl)c4[C@@H](O)[C@H]3C[C@@H]12

>  <cell viability / %>
102

$$$$
>  <compound>
Cc1nc2ccc(NC(=O)Nc3ccnc4cccnc34)cc2o1

>  <cell viability / %>
94.5

$$$$
>  <compound>
COC(=O)[C@H]1[C@H]2C[C@@H]3c4[nH]c5cc(OC)ccc5c4CCN3C[C@H]2C[C@@H](OC(=O)c2cc(OC)c(OC)c(OC)c2)[C@@H]1OC

>  <cell viability / %>
109

$$$$
>  <compound>
Nc1ncnc2c1ncn2[C@@H]1O[C@H](COP(=O)(O)O)[C@@H](O)[C@H]1O [adenosine-phosphate]

>  <cell viability / %>
93.6

$$$$
>  <compound>
COc1cc(N2CCC(O)CC2)ccc1Nc1cc(Nc2ccccc2S(=O)(=O)C(C)C)c2cc[nH]c2n1

>  <cell viability / %>
90.9

$$$$
>  <compound>
NS(=O)(=O)c1cc(C2(O)NC(=O)c3ccccc32)ccc1Cl (stereo unspecified)

>  <cell viability / %>
107

$$$$
>  <compound>
Cc1c(N)nc([C@H](CC(N)=O)NC[C@H](N)C(N)=O)nc1C(=O)N[C@H](C(=O)N[C@H](C)[C@@H](O)[C@H](C)C(=O)N[C@H](C(=O)NCCc1nc(-c2nc(C(=O)NCCC[S+](C)C)cs2)cs1)[C@@H](C)O)[C@@H](OC1OC(CO)C(O)C(O)C1OC1OC(CO)C(O)C(OC(N)=O)C1O)c1cnc[nH]1 (stereo partly specified)

>  <cell viability / %>
94.7

$$$$
>  <compound>
CN(C)CCC(c1ccccc1)c1ccccn1 (stereo unspecified)

>  <cell viability / %>
99

$$$$
>  <compound>
CCOC(=O)c1ccc(N)cc1

>  <cell viability / %>
105

$$$$
>  <compound>
CC(=O)Oc1ccccc1C(=O)Oc1cccc(CO[N+](=O)[O-])c1

>  <cell viability / %>
98.9

$$$$
>  <compound>
C1=N/C2=N/c3ccc(OCCN4CCCC4)c(c3)COC/C=C/COCc3cccc(c3)C(=C1)N2

>  <cell viability / %>
95.6

$$$$
>  <compound>
Cn1c2c(c3ccccc31)CCNCC2

>  <cell viability / %>
99.3

$$$$
>  <compound>
Clc1ccc(C(c2ccc(Cl)cc2)C(Cl)(Cl)Cl)cc1

>  <cell viability / %>
93

$$$$
>  <compound>
CN1CCN(c2ccc(C(=O)Nc3n[nH]c4ccc(Cc5cc(F)cc(F)c5)cc34)c(NC3CCOCC3)c2)CC1

>  <cell viability / %>
98.5

$$$$
>  <compound>
OCc1ccc(-c2ccc(-c3ccc(CO)s3)o2)s1

>  <cell viability / %>
90.6

$$$$
>  <compound>
Cc1c(C(=O)N2CCOc3ccc(-c4ccc(N)nc4)cc3C2)ccc(S(C)(=O)=O)c1F

>  <cell viability / %>
103

$$$$
>  <compound>
CCOC(=O)C1=C(C)NC(c2ccccc2)=C(C(=O)OCc2ccc([N+](=O)[O-])cc2)[C@@H]1C#Cc1ccccc1

>  <cell viability / %>
96.8

$$$$
>  <compound>
CCOC(=O)[C@H](CCc1ccccc1)N[C@@H](C)C(=O)N1Cc2cc(OC)c(OC)cc2C[C@H]1C(=O)O

>  <cell viability / %>
107

$$$$
>  <compound>
COc1c(C)cnc(Cn2cc(C#CCC(C)(C)O)c3c(Cl)nc(N)nc32)c1C

>  <cell viability / %>
84.3

$$$$
>  <compound>
Oc1cc2c(cc1O)CN(C(=S)NCCc1ccc(Cl)cc1)CCC2 [capsazepine]

>  <cell viability / %>
110

$$$$
>  <compound>
COc1cccc(N(C)C(=S)Oc2ccc3c(c2)CCCC3)n1 [liranaftate]

>  <cell viability / %>
102

$$$$
>  <compound>
C/C(=N\c1ccccc1N)c1c(C)cc(=O)n(O)c1O

>  <cell viability / %>
91.8

$$$$
>  <compound>
Cn1cc(C2=C(c3ccc(Cl)cc3Cl)C(=O)NC2=O)c2ccccc21

>  <cell viability / %>
99.5

$$$$
>  <compound>
C[C@@H]1CN(c2c(F)c(F)c3c(=O)c(C(=O)O)cn(C4CC4)c3c2F)C[C@H](C)N1

>  <cell viability / %>
112

$$$$
>  <compound>
COc1ccc(CCN2CCN(CCCc3ccccc3)CC2)cc1OC

>  <cell viability / %>
102

$$$$
>  <compound>
Cc1cc(O)c2c(c1)C(=O)c1cccc(O)c1C2=O

>  <cell viability / %>
92.4

$$$$
>  <compound>
Cc1cc(C)c(N(Cc2ccccc2)S(=O)(=O)c2ccc(OCCNC(=O)c3cc4ccccc4o3)cc2)c(C(=O)NO)c1

>  <cell viability / %>
96.9

$$$$
>  <compound>
NCCCC[C@H](N)C(=O)O

>  <cell viability / %>
106

$$$$
